Molecular target: EmCV Cap-dependent translation
Assay: In vitro translation assay, FF-EmCV-Ren construct, cap-dependent (FF luciferase)
Type: biochemical, rabbit reticulocyte lysates
pIC50: −log10 of the molar value.
Property name: pIC50

> print(dat)
                         chemical.structure  property.name        result
1  O=C(/C=C/c1cncc(F)c1)c1c(-c2ccc(C(F)(F)F)cc2)c2cc(Cl)ccc2[nH]c1=O          pIC50  5.00 to 5.70
2  O=C(/C=C/c1ccccn1)c1c(-c2ccc(C(F)(F)F)cc2)c2cc(Cl)ccc2[nH]c1=O          pIC50  5.00 to 5.70
3  Cc1ccnc(-c2c(C(=O)/C=C/c3cncc(F)c3)c(=O)[nH]c3ccc(Cl)cc23)c1          pIC50        < 4.70
4  Cc1ccc(/C=C/C(=O)c2c(-c3ccccc3)c3cc(Cl)ccc3[nH]c2=O)cc1          pIC50  4.70 to 5.00
5  COc1cncc(-c2c(C(=O)/C=C/c3cncc(F)c3)c(=O)[nH]c3ccc(Cl)cc23)c1          pIC50  5.00 to 5.70
6  O=C(/C=C/c1c(F)cccc1F)c1c(-c2ccccc2)c2cc(Cl)ccc2[nH]c1=O          pIC50  5.00 to 5.70
7  CN(C)c1ccc(/C=C/C(=O)c2c(-c3ccccc3)c3cc([N+](=O)[O-])ccc3[nH]c2=O)cc1          pIC50        < 4.70

----------
Entries and their IC50
Biological target: HCV cap-independent translation
Assay: In vitro translation assay, FF-HCV-Ren construct, cap-independent (Ren luciferase)
Property name: IC50

> print(dat)
                          chemical.structure       result
 1  N#Cc1ccc(-c2c(C(=O)/C=C/c3ccccn3)c(=O)[nH]c3ccc(Cl)cc23)cc1   2 to 10 µM
 2  O=C(/C=C/c1ccsc1)c1c(-c2ccccc2)c2cc(Cl)ccc2[nH]c1=O   2 to 10 µM
 3  O=C(/C=C/c1nc2ccccc2[nH]1)c1c(-c2ccccc2)c2cccnc2[nH]c1=O      > 20 µM
 4  O=C(CCc1cncc(F)c1)c1c(-c2ccccc2)c2cc(Cl)ccc2[nH]c1=O      > 20 µM
 5  COc1ccc(-c2c(C(=O)/C=C/c3cncc(F)c3)c(=O)[nH]c3ccc(Cl)cc23)cc1   2 to 10 µM
 6  Cc1ccc(-c2c(C(=O)/C=C/c3nc4ccccc4[nH]3)c(=O)[nH]c3ccc(Cl)cc23)cc1   2 to 10 µM
 7  O=C(/C=C/c1ccccn1)c1c(-c2ccc(Cl)cc2)c2cc(Cl)ccc2[nH]c1=O   2 to 10 µM
 8  N#Cc1cncc(-c2c(C(=O)/C=C/c3ccccn3)c(=O)[nH]c3ccc(Cl)cc23)c1  10 to 20 µM
 9  CN(C)c1ccc(/C=C/C(=O)c2c(-c3ccccc3)c3cc([N+](=O)[O-])ccc3[nH]c2=O)cc1      > 20 µM
10  O=C(/C=C/c1cccnc1)c1c(-c2ccccc2)c2cc(Cl)ccc2[nH]c1=O   2 to 10 µM

----------
Entries and their IC50
Molecular target: HCV cap-independent translation
Test: In vitro translation assay, FF-HCV-Ren construct, cap-independent (Ren luciferase)
Property name: IC50

> print(dat)
                         chemical.structure      result
1  COc1ccc2[nH]c(/C=C/C(=O)c3c(-c4ccccc4)c4cc(Cl)ccc4[nH]c3=O)nc2c1  2 to 10 µM
2  CCn1c(/C=C/C(=O)c2c(-c3ccccc3)c3cc(Cl)ccc3[nH]c2=O)nc2cc(Cl)c(Cl)cc21     > 20 µM
3  O=C(/C=C/c1nc2ccccc2[nH]1)c1c(C2CCCCC2)c2cc(Cl)ccc2[nH]c1=O  2 to 10 µM
4  O=C(/C=C/c1ccccn1)c1c(-c2ccc(Br)cc2)c2cc(Cl)ccc2[nH]c1=O  2 to 10 µM
5  O=C(/C=C/c1ccoc1)c1c(-c2ccccc2)c2cc(Cl)ccc2[nH]c1=O     > 20 µM
6  N#Cc1cncc(/C=C/C(=O)c2c(-c3ccccc3)c3cc(Cl)ccc3[nH]c2=O)c1  2 to 10 µM
7  O=C(/C=C/c1cc(Cl)ccn1)c1c(-c2ccccc2)c2cc(Cl)ccc2[nH]c1=O     > 20 µM
8  O=C(/C=C/c1cccs1)c1c(-c2ccccc2)c2cc(Cl)ccc2[nH]c1=O     > 20 µM

----------
Assay: PAMPA Permeability
Assay type: in vitro ADME
Conditions: Donor pH 6.2, Acceptor pH 7.4, read-out: PAMPA Permeability, Pe, Donor pH 6.2
Property name: Papp

> print(dat)
                                   compound           result
1  O=C(/C=C/c1ccccc1)c1c(C2CCCCC2)c2cc(Cl)ccc2[nH]c1=O   301 ×10⁻⁶ cm/s
2  O=C(/C=C/c1cncc(F)c1)c1c(-c2ccccc2)c2cc(Cl)ccc2[nH]c1=O  1150 ×10⁻⁶ cm/s
3  O=C(/C=C/c1nc2cc(Cl)ccc2[nH]1)c1c(-c2ccccc2)c2cc(Cl)ccc2[nH]c1=O   6.2 ×10⁻⁶ cm/s
4  O=C(/C=C/c1nc2ccccc2[nH]1)c1c(O)nc2ccc(Cl)cc2c1-c1ccccc1 [BI-69A11, reference compound]    16 ×10⁻⁶ cm/s

----------
Biological target: HCV cap-independent translation
Assay: In vitro translation assay, FF-HCV-Ren construct, cap-independent (Ren luciferase)
pIC50: −log10 of the molar value.
Property name: pIC50

> print(dat)
                         chemical.structure  property.name        result
1  O=C(/C=C/c1c(F)cccc1F)c1c(-c2ccccc2)c2cc(Cl)ccc2[nH]c1=O          pIC50  5.00 to 5.70
2  Cc1ccc(-c2c(C(=O)/C=C/c3ccccn3)c(=O)[nH]c3ccc(Cl)cc23)cc1          pIC50  5.00 to 5.70
3  O=C(/C=C/c1nc2ccccc2[nH]1)c1c(-c2ccccc2)c2cnccc2[nH]c1=O          pIC50  4.70 to 5.00
4  O=C(/C=C/c1cncc(F)c1)c1c(-c2ccccc2)c2cc(Cl)ccc2[nH]c1=O          pIC50  5.00 to 5.70
5  Cn1c(/C=C/C(=O)c2c(-c3ccccc3)c3cc(Cl)ccc3[nH]c2=O)cc2ccccc21          pIC50        < 4.70
6  CN(C)c1ccc(/C=C/C(=O)c2c(-c3ccccc3)c3cc(Cl)ccc3[nH]c2=O)cc1          pIC50        < 4.70
7  O=C(/C=C/c1cncnc1)c1c(-c2ccccc2)c2cc(Cl)ccc2[nH]c1=O          pIC50  5.00 to 5.70
8  O=C(/C=C/c1nc2ccccc2[nH]1)c1c(-c2ccc(C(F)(F)F)cc2)c2cc(Cl)ccc2[nH]c1=O          pIC50  5.00 to 5.70

----------
Reported IC50 values follow for various compounds
Molecular target: HCV cap-independent translation
Experiment: In vitro translation assay, FF-HCV-Ren construct, cap-independent (Ren luciferase)
Property name: IC50

> print(dat)
                          chemical.structure              experimental.system       result
 1  O=C(/C=C/c1ccc(F)c(F)c1)c1c(-c2ccccc2)c2cc(Cl)ccc2[nH]c1=O  HCV cap-independent translation   2 to 10 µM
 2  Cn1c(/C=C/C(=O)c2c(-c3ccccc3)c3cc(Cl)ccc3[nH]c2=O)nc2ccccc21  HCV cap-independent translation   2 to 10 µM
 3  O=C(/C=C/c1cncc(F)c1)c1c(-c2ccc(C(F)(F)F)cc2)c2cc(Cl)ccc2[nH]c1=O  HCV cap-independent translation   2 to 10 µM
 4  N#Cc1ccc(-c2c(C(=O)/C=C/c3cncc(F)c3)c(=O)[nH]c3ccc(Cl)cc23)cc1  HCV cap-independent translation   2 to 10 µM
 5  O=C(/C=C/c1cnccn1)c1c(-c2ccccc2)c2cc(Cl)ccc2[nH]c1=O  HCV cap-independent translation   2 to 10 µM
 6  O=C(/C=C/c1ccccc1)c1c(-c2ccccc2)c2cc(Cl)ccc2[nH]c1=O  HCV cap-independent translation   2 to 10 µM
 7  COc1ccc2[nH]c(=O)c(C(=O)/C=C/c3nc4ccccc4[nH]3)c(-c3ccccc3)c2c1  HCV cap-independent translation  10 to 20 µM
 8  O=C(/C=C/c1cncc(F)c1)c1c(-c2cncc(Cl)c2)c2cc(Cl)ccc2[nH]c1=O  HCV cap-independent translation  10 to 20 µM
 9  O=C(/C=C/c1ccc(F)cc1F)c1c(-c2ccccc2)c2cc(Cl)ccc2[nH]c1=O  HCV cap-independent translation   2 to 10 µM
10  Cn1c(/C=C/C(=O)c2c(-c3ccccc3)c3cc(Cl)ccc3n(C)c2=O)nc2ccccc21  HCV cap-independent translation   2 to 10 µM
11  Cn1ccc2cc(/C=C/C(=O)c3c(-c4ccccc4)c4cc(Cl)ccc4[nH]c3=O)ccc21  HCV cap-independent translation      > 20 µM
12  CCOC(=O)c1cncc(-c2c(C(=O)/C=C/c3ccccn3)c(=O)[nH]c3ccc(Cl)cc23)c1  HCV cap-independent translation  10 to 20 µM
13  O=C(/C=C/c1nc2ccccc2[nH]1)c1c(-c2ccccc2)c2ccncc2[nH]c1=O  HCV cap-independent translation  10 to 20 µM
14  CCn1c(/C=C/C(=O)c2c(-c3ccccc3)c3cc(Cl)ccc3[nH]c2=O)nc2ccccc21  HCV cap-independent translation   2 to 10 µM
15  N#Cc1cncc(-c2c(C(=O)/C=C/c3cncc(F)c3)c(=O)[nH]c3ccc(Cl)cc23)c1  HCV cap-independent translation  10 to 20 µM
16  O=C(/C=C/c1cncc(F)c1)c1c(-c2cncc(F)c2)c2cc(Cl)ccc2[nH]c1=O  HCV cap-independent translation   2 to 10 µM

Data provenance: patent US10577349B2
